B1: Chromodomain-helicase-DNA-binding protein 4, residues 444 to 496; numbered along this chain, Q14839 (parent)
chain: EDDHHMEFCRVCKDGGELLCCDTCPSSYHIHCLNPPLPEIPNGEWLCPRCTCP

- Variants of: B1
- assay_info: abundance fitness (aPCA) (normalised: wild type 0, dead -1); higher = more abundant; growth selection in yeast, the domain comes from the species named
- run_parameters: Homo sapiens
recorded_metric: abundance fitness

>  <variant_code>
R49G

>  <recorded_metric>
abundance fitness

>  <assay_value>
0.069

$$$$
>  <variant_code>
I30E

>  <recorded_metric>
abundance fitness

>  <assay_value>
-0.072

$$$$
>  <variant_code>
G16L

>  <recorded_metric>
abundance fitness

>  <assay_value>
-0.7

$$$$
>  <variant_code>
L37W

>  <recorded_metric>
abundance fitness

>  <assay_value>
-0.248

$$$$
>  <variant_code>
N42A

>  <recorded_metric>
abundance fitness

>  <assay_value>
0.037

$$$$
>  <variant_code>
E17V

>  <recorded_metric>
abundance fitness

>  <assay_value>
-0.215

$$$$
>  <variant_code>
K13F

>  <recorded_metric>
abundance fitness

>  <assay_value>
-0.267

$$$$
>  <variant_code>
C24P

>  <recorded_metric>
abundance fitness

>  <assay_value>
-0.819

$$$$
